test system: SNB-78 CNS; test: NCI tumour cell line growth inhibition, 48 h
Observation type: TGI

Field: example entries. Status: answers known.
>>> recorded_result("Nc1nc(=S)c2c(ncn2CC(O)CO)[nH]1 (stereo unspecified)")
"> 100 µM"
>>> recorded_result("Cc1cn(C2CC(n3cncn3)C(C(C)O)O2)c(=O)[nH]c1=O (stereo unspecified)")
"> 100 µM"
>>> recorded_result("COC(=O)c1nn(-c2ccccc2)c(=O)cc1N=[N+]=[N-]")
"> 100 µM"

Would you kindly share the measured TGI for CN1C(=O)CC2(C)c3cc(O)ccc3N(C)C12 (stereo unspecified) ?
> 100 µM

And the next one, Cn1c(=O)c2c3ccccc3c(C(=O)c3ccccc3)n2c2ccccc21 ?
> 100 µM

And the next one, NC1=NS(=O)(=O)Nc2nc(-c3ccccc3)c(-c3ccccc3)nc21 ?
> 100 µM
